Listed next: entries and their corresponding Total Impurity Amount %.
TEST METHOD NOTES: Antioxidant effect on galantamine stability under normal and stress conditions
Format: physicochemical
MEASUREMENT PARAMETERS: galantamine with the antioxidant (label); 80′C-4 D
Express your answer in %, writing the number without its unit.

{"COMPOUND": "O=S([O-])[O-].[Na+].[Na+] [Sodium Sulfite, sodium sulfite]", "Total Impurity Amount %, %": 1.69}

Consider the compound shown here: O=S=O [Sulfur Dioxide, sulfur dioxide] What is its recorded Total Impurity Amount %? 1.83

Consider the compound shown here: OCC(O)CS (centres unmarked) [Monothioglycerol, monothioglycerol] What is its recorded Total Impurity Amount %? 1.49

Consider the compound shown here: O=S([O-])S(=O)(=O)[O-].[Na+].[Na+] [Sodium metabisulfite, sodium metabisulfite] What is its recorded Total Impurity Amount %? 0.93
